Parameter Papp B→A at 2 h, 2 µM: see the listing below.
assay: Apparent permeability from basolateral side to apical side in human Caco2 cells at 2 uM incubated for 2 hrs by LC-MS/MS analysis; format: ADME, cell-based; conditions: Caco-2

// solved cases for Papp B→A at 2 h, 2 µM follow
# Compound, Papp B→A at 2 h, 2 µM
measured = [
    ("CCOC(=O)[C@H](CC(C)C)NP(=O)(OC[C@H]1OC(OC(C)=O)[C@@H](NC(C)=O)[C@@H](OC(C)=O)[C@@H]1OC(C)=O)Oc1ccccc1 (mixture of isomers)", "0.8 ×10⁻⁶ cm/s"),
    ("COC(=O)CNP(=O)(OC[C@H]1OC(OC(C)=O)[C@@H](NC(C)=O)[C@@H](OC(C)=O)[C@@H]1OC(C)=O)Oc1cccc2ccccc12 (mixture of isomers)", "0.3 ×10⁻⁶ cm/s"),
    ("COC(=O)[C@@H]1CCCN1P(=O)(OC[C@H]1OC(OC(C)=O)[C@@H](NC(C)=O)[C@@H](OC(C)=O)[C@@H]1OC(C)=O)Oc1ccccc1 (mixture of isomers)", "0.1 ×10⁻⁶ cm/s"),
]

stdin: For CCOC(=O)[C@H](Cc1ccccc1)NP(=O)(OC[C@H]1OC(OC(C)=O)[C@@H](NC(C)=O)[C@@H](OC(C)=O)[C@@H]1OC(C)=O)Oc1ccccc1 (mixture of isomers) , what is its reported Papp B→A at 2 h, 2 µM?
stdout: 0.3 ×10⁻⁶ cm/s

The measured values listed here are drawn from ChEMBL document CHEMBL4334466.
